# studyTarget: T1, N-terminal EC region of human CXCR5 (amino acids 1-59), synthetic peptide with a terminal biotin tag (human, UniProt P32302 1-59, terminal biotin tag)
# T1 construct: range 1-59; also called biotinylated human peptide
# T1 sequence (peptide, looked up): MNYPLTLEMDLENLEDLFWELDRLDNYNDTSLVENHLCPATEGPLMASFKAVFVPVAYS
# assayProcedure: Biacore, forward format: biotin-tagged CXCR5 N-terminal peptide (aa 1-59) on the chip, antibody as analyte
Catalogue of binders with associated Kd
outcomeMeasure: Kd

1. 16D7-HC1-LC2 (antibody, V domains shown, Humanized 16D7 on an IgG4 backbone / kappa; also called Version3) VH: QVQLKESGPGLVAPSESLSITCTVSGFSLIDYGVNWIRQPPGKGLEWLGVIWGDGTTYYNPSLKSRLSISKDNSKSQVFLKVTSLTTDDTAMYYCARIVYWGQGTLVTVSA VL: DIVMTQAAPSVAVTPGASVSISCRSSKSLLHSSGKTYLYWFLQRPGQSPQLLIYRLSNLASGVPDRFSGSGSGTAFTLRISRVEAEDVGVYYCMQHLEYPYTFGGGTKLEIKR    1.41 pM
2. 16D7-HC3-LC4 (antibody, V domains shown, Resurfaced 16D7; VL fused to IGKC, VH fused to IGHG4 lacking the C-terminal Lys; also called Version5) VH: QVQLQESGPGLVAPSESLSITCTVSGFSLIDYGVNWIRQPPGKGLEWLGVIWGDGTTYYNPSLKSRLSISKDNSKSQVFLKMNSLTAADTAMYYCARIVYWGQGTLVTVSS VL: DIVMTQSALSVAVTPGESVSISCRSSKSLLHSSGKTYLYWFLQRPGQSPQLLIYRMSNLASGVPDRFSGSGSGTAFTLKISRVEAEDVGVYYCMQHLEYPYTFGGGTKLEIKR    4.92 pM
3. 16D7-HC3-LC5 (antibody, V domains shown, Resurfaced 16D7; VL fused to IGKC, VH fused to IGHG4 lacking the C-terminal Lys; also called Version6) VH: QVQLQESGPGLVAPSESLSITCTVSGFSLIDYGVNWIRQPPGKGLEWLGVIWGDGTTYYNPSLKSRLSISKDNSKSQVFLKMNSLTAADTAMYYCARIVYWGQGTLVTVSS VL: DIVMTQSALSVAVTPGESVSISCRSSKSLLHSSGKTYLYWFLQRPGQSPQLLIYRLSNLASGVPDRFSGSGSGTAFTLKISRVEAEDVGVYYCMQHLEYPYTFGGGTKLEIKR    184 pM
4. Mouse anti-hCXCR5 mAb clone 16D7 (antibody, V domains shown, Mouse monoclonal antibody from a hybridoma; kappa light chain; also called murine 16D7; parent 16D7 antibody) VH: QVQLKESGPGLVAPSQSLSITCTVSGFSLIDYGVNWIRQPPGKGLEWLGVIWGDGTTYYNSALKSRLSIRKDNSQSQVFLKMNSLQTDDTAMYYCARIVYWGQGTLVTVSA VL: DIVMTQAAPSVAVTPRESVSISCRSSKSLLHSSGKTYLYWFLQRPGQSPQLLIYRMSNLASGVPDRFSGSGSGTAFTLRISRVEAEDVGVYYCMQHLEYPYTFGGGTKLEIK    2.16 pM
5. 16D7-HC1-LC1 (antibody, V domains shown, Humanized 16D7 on an IgG4 backbone / kappa; also called Version1) VH: QVQLKESGPGLVAPSESLSITCTVSGFSLIDYGVNWIRQPPGKGLEWLGVIWGDGTTYYNPSLKSRLSISKDNSKSQVFLKVTSLTTDDTAMYYCARIVYWGQGTLVTVSA VL: DIVMTQAAPSVAVTPGASVSISCRSSKSLLHSSGKTYLYWFLQRPGQSPQLLIYRMSNLASGVPDRFSGSGSGTAFTLRISRVEAEDVGVYYCMQHLEYPYTFGGGTKLEIKR    3.11 pM
6. 16D7-HC2-LC1 (antibody, V domains shown, Humanized 16D7 on an IgG4 backbone / kappa; also called Version 2) VH: EVQLKESGPGLVAPGGSLSITCTVSGFSLIDYGVNWIRQPPGKGLEWLGVIWGDGTTYYNAPLKGRLSISKDNSKSQVFLQMNSLKTDDTAMYYCARIVYWGQGTLVTVSS VL: DIVMTQAAPSVAVTPGASVSISCRSSKSLLHSSGKTYLYWFLQRPGQSPQLLIYRMSNLASGVPDRFSGSGSGTAFTLRISRVEAEDVGVYYCMQHLEYPYTFGGGTKLEIKR    2.4 pM
7. 16D7-HC1-LC6 (antibody, V domains shown, Leader (residues 1-19) left out by comparison with the printed variable domains) VH: QVQLKESGPGLVAPSESLSITCTVSGFSLIDYGVNWIRQPPGKGLEWLGVIWGDGTTYYNPSLKSRLSISKDNSKSQVFLKVTSLTTDDTAMYYCARIVYWGQGTLVTVSA VL: DIVMTQSALSVAVTPGESVSISCRSSKSLLHSSGKTYLYWFLQRPGQSPQLLIYRLSSLASGVPDRFSGSGSGTAFTLKISRVEAEDVGVYYCMQHLEYPYTFGGGTKLEIKR    91.7 pM
8. mouse/human IgG4 chimeric 16D7 (antibody, V domains shown, 16D7 VH and VL on human IgG4 (IGHG4 lacking the C-terminal Lys) and kappa (IGKC); also called the hIgG4 chimera) VH: QVQLKESGPGLVAPSQSLSITCTVSGFSLIDYGVNWIRQPPGKGLEWLGVIWGDGTTYYNSALKSRLSIRKDNSQSQVFLKMNSLQTDDTAMYYCARIVYWGQGTLVTVSA VL: DIVMTQAAPSVAVTPRESVSISCRSSKSLLHSSGKTYLYWFLQRPGQSPQLLIYRMSNLASGVPDRFSGSGSGTAFTLRISRVEAEDVGVYYCMQHLEYPYTFGGGTKLEIKR    1.41 pM

Origin of the recorded values: patent US20130251714A1
